This listing pairs compounds with measured Analiza solubility (μM) pH 7.4.
Settings: pH 7.4

Field: example entries. Status: answers known.
smiles_string	Analiza solubility (μM) pH 7.4
Cc1cccc(Nc2nc(-c3ccc(-c4ccc(OCC#N)nc4)cc3)cs2)n1	<0.4 μM
CN(C)c1cccc(Nc2nc(-c3ccc(-c4ccccc4)cc3)cs2)n1	<0.5 μM
Cc1cccc(Nc2nc(-c3ccc(-c4ccnc(OCC#N)c4)cc3)cs2)n1	<0.4 μM

Consider the record given below.
Respond only with Analiza solubility (μM) pH 7.4 recorded for COCCOc1cc(-c2ccc(-c3csc(Nc4cccc(C)n4)n3)cc2)ccn1
<0.5 μM

###

Assay: Hepatic microsomal stability, rat
Details: Sprague-Dawley, rat, […], pH 7.4
endpoint: half-life at 1 μM

smiles_string	result
c1ccc2cc(Nc3nc(-c4ccncc4)cs3)ncc2c1	18 min
Cc1cccc(Nc2nc(-c3ccc(-c4ccccc4)cc3)cs2)n1	> 60 min

Respond only with half-life at 1 μM recorded for COc1ccc(-c2csc(Nc3cc4ccccc4cn3)n2)cc1OC
> 60 min

Respond only with half-life at 1 μM recorded for Cc1ccnc(Nc2nc(-c3ccc(-c4ccccn4)s3)cs2)c1
58 min

Respond only with half-life at 1 μM recorded for Cc1ccnc(Nc2nc(-c3ccncc3)cs2)c1
16 min
